run description: physchem
condition context: 0.01N HCl
readout type: solubility (µg/mL)
Unit µg/mL implied. Number only.

[
  {
    "molecule": "CC(=O)Nc1nc2c(Oc3cc(-c4ccc(C(F)(F)F)cc4NC(=O)CCN(C)C)ncn3)cccc2s1",
    "unit info": "µg/mL",
    "solubility": 81
  }
]

[in] solubility for CC(=O)Nc1nc2c(Oc3cc(-c4ccc(C(F)(F)F)cc4NC(=O)[C@@H]4CCC(C)N4)ncn3)cccc2s1 (stereo not given in full) ?
[out] 120

###

run description: physchem
condition context: phosphate buffered saline, pH 7
readout type: solubility (µg/mL)
State the answer as a number, implicitly in µg/mL.

Past entries and their recorded results:
[
  {
    "molecule": "CC(=O)Nc1nc2c(Oc3cc(-c4ccc(C(F)(F)F)cc4NC(=O)[C@@H]4CCCN4CC(C)C)ncn3)cccc2s1",
    "readout type": "solubility",
    "reported measurement": 6
  },
  {
    "molecule": "CC(=O)Nc1nc2c(Oc3cc(-c4ccc(C(F)(F)F)cc4NC(=O)[C@@H]4CCC(C)N4)ncn3)cccc2s1 (stereo not given in full)",
    "readout type": "solubility",
    "reported measurement": 7.4
  },
  {
    "molecule": "CC(=O)Nc1nc2c(Oc3cc(-c4ccc(C(F)(F)F)cc4NC(=O)CCN(C)C)ncn3)cccc2s1",
    "readout type": "solubility",
    "reported measurement": 3.9
  }
]

Now for the molecule whose solubility we want.
[in] What does the record list as solubility for "CC(=O)Nc1nc2c(Oc3cc(-c4ccc(C(F)(F)F)cc4NC(=O)[C@H]4CCCN4CC(C)C)ncn3)cccc2s1" ?
[out] 1

###

run description: physchem
condition context: simulated intestinal fluid
readout type: solubility (µg/mL)
Numbers only; they are read as µg/mL.

[
  {
    "compound": "CC(=O)Nc1nc2c(Oc3cc(-c4ccc(C(F)(F)F)cc4NC(=O)[C@@H]4CCC(C)N4)ncn3)cccc2s1 (some centres undefined)",
    "solubility, µg/mL": 59
  },
  {
    "compound": "CC(=O)Nc1nc2c(Oc3cc(-c4ccc(C(F)(F)F)cc4NC(=O)[C@@H]4CCCN4CC(C)C)ncn3)cccc2s1",
    "solubility, µg/mL": 39
  },
  {
    "compound": "CC(=O)Nc1nc2c(Oc3cc(-c4ccc(C(F)(F)F)cc4NC(=O)CCN(C)C)ncn3)cccc2s1",
    "solubility, µg/mL": 30
  }
]

[in] Which solubility is listed for "CC(=O)Nc1nc2c(Oc3cc(-c4ccc(C(F)(F)F)cc4NC(=O)[C@H]4CCCN4CC(C)C)ncn3)cccc2s1" ?
[out] 39

###

run description: in vivo
condition context: Sprague-Dawley, rat, po, 5 mg/kg
readout type: half-life
Write the numeric value and follow it with the unit.

[in] Recorded half-life of "CC(=O)Nc1nc2c(Oc3cc(-c4ccc(C(F)(F)F)cc4)ncn3)cccc2s1" , please.
[out] 6.3 h

###

run description: physchem
condition context: 0.01N HCl
Entries annotated with measured solubility

Answered cases to consult:
[
  {
    "line notation": "CC(=O)Nc1nc2c(Oc3cc(-c4ccc(C(F)(F)F)cc4NC(=O)[C@H]4CCCN4CC(C)C)ncn3)cccc2s1",
    "reported measurement": "> 200 µg/mL"
  },
  {
    "line notation": "CC(=O)Nc1nc2c(Oc3cc(-c4ccc(C(F)(F)F)cc4)ncn3)cccc2s1",
    "reported measurement": "< 1 µg/mL"
  }
]

[in] Any idea what solubility was measured for "CC(=O)Nc1nc2c(Oc3cc(-c4ccc(C(F)(F)F)cc4NC(=O)[C@@H]4CCCN4CC(C)C)ncn3)cccc2s1" ?
[out] > 200 µg/mL
